All figures here come from paper PMC6338552.

Biological target: His6-JNK3α1 (UniProt P53779-2 1-422)
Test: fluorescence polarisation
TMR = 6-carboxytetramethylrhodamine
Assay endpoint: pKd
Answers are plain numbers, as −log10 of the molar value.

Supply measured pKd of {TMR}-RPKRPTTLNLF-OH [TMR-JIPtide] in your reply.
5.55
